Each entry below carries its recorded T/C.
tested on: P388 leukemia ip, CD2F1 mice, survival T/C; assay: NCI In Vivo Anticancer Drug Screen. Data for tumor model P388 Leukemia (intraperitoneal) in CD2F1 (CDF1) mice; settings: endpoint: median survival time; dose: 200.0 mg/kg/injection; schedule: Q01DX009 (ip); vehicle: Klucel (hydroxypropylcellulose) (HPC); higher = longer survival
Inconclusive results and toxic doses are left out.

Previously resolved entries follow.
# compound, tested_target, experimental_result
rows = [
    ("CC(=O)c1cccc(NC(=O)Nc2nccs2)c1", "P388 leukemia ip, CD2F1 mice, survival T/C", "105 % of control"),
    ("CCOC(=O)C(Cl)(SC(Cl)(S(=O)(=O)c1ccccc1)S(=O)(=O)c1ccccc1)C(=O)OCC", "P388 leukemia ip, CD2F1 mice, survival T/C", "97 % of control"),
    ("Nc1cc(S(N)(=O)=O)ccc1SSc1ccc(S(N)(=O)=O)cc1N", "P388 leukemia ip, CD2F1 mice, survival T/C", "112 % of control"),
]

Incoming: Under P388 leukemia ip, CD2F1 mice, survival T/C: T/C value of `Oc1ccc(N=Cc2cccs2)cc1` ?
Outgoing: 105 % of control

Incoming: Under P388 leukemia ip, CD2F1 mice, survival T/C: T/C value of `CCOC(=O)CCC(Br)(Br)Br` ?
Outgoing: 97 % of control

Incoming: Under P388 leukemia ip, CD2F1 mice, survival T/C: T/C value of `CCCCCCC(=O)C(=O)c1ccc(O)c(C)c1O` ?
Outgoing: 93 % of control

Incoming: Under P388 leukemia ip, CD2F1 mice, survival T/C: T/C value of `O=C1OCCN1CCCl` ?
Outgoing: 121 % of control

Incoming: Under P388 leukemia ip, CD2F1 mice, survival T/C: T/C value of `C(=C\c1ccc(-c2nc3ccccc3o2)cc1)/c1ccc(-c2nc3ccccc3o2)cc1` ?
Outgoing: 102 % of control

Just for reference, PubChem BioAssay AID330 is where these values come from.
